Exercise: state measured log10(EC50) for each of the molecules provided.
measurement.target: S1P1 (Homo sapiens (Human), UniProt P21453)
Sequence (P21453 whole entry): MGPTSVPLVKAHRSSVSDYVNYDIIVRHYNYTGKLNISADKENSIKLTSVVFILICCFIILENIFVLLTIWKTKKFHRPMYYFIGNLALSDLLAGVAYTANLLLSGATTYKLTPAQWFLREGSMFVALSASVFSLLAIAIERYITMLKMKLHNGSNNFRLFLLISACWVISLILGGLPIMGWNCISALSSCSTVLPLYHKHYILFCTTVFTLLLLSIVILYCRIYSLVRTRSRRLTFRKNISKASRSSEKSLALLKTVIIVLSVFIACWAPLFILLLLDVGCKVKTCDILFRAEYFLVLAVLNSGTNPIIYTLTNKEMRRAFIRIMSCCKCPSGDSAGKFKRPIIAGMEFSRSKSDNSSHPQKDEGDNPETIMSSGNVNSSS
experiment.description: S1P1 agonist assay (Ec50 S1P1Ag)
Type: cell-based
Give log10 of EC50, with EC50 taken in nM.

Which log10(EC50) value belongs to COc1cc(-c2nc(-c3cccnc3)no2)ccc1C ? 2.44

Given the molecule COc1cc(-c2nc(-c3cncc(C)c3)no2)ccc1C , what is its reported log10(EC50)? 2.78

Item CCOc1ccc(-c2nc(-c3ccc(CO)c(C)c3)no2)cc1OCC has what recorded log10(EC50)? 2.02

Can you look up the measured log10(EC50) of CCOc1ccc(-c2nc(-c3cccc(CN(C)C)c3)no2)cc1OCC for me? 1.66

Reported log10(EC50) for CCOc1ccc(-c2nc(-c3cccc4[nH]cc(CN5CC[C@H](O)C5)c34)no2)cc1OCC : what is it? 2.48

For the molecule CCOc1ccc(-c2nc(-c3cccc4c3CCC4NCCO)no2)cc1C(F)(F)F (stereo not drawn) , what log10(EC50) is on record? 0.90

----------
measurement.target: S1P1 (Homo sapiens (Human), UniProt P21453)
experiment.description: S1P1 agonist assay (Ec50 S1P1Ag)
Format: cell-based
Please assign 0 (no) whenever EC50 is at or above 80 nM, and 1 (yes) whenever it is below.

Criterion: EC50 strictly below 80 nM. Is it met by CCOc1ccc(-c2nc(-c3ccc(OC(F)(F)F)cc3)no2)cc1OCC ? 0 (no)

hey, is EC50 for CCOc1ccc(-c2nc(-c3ccc4c(c3)CCN4CCCO)no2)cc1OCC lower than 80 nM or not? 1 (yes)

Threshold test, EC50 < 80 nM: CC(C)Oc1ccc(-c2ncc(-c3cccc4c3CCC4O)o2)cc1C#N (stereo not shown) 1 (yes)

Problem: For the molecule CCOc1ccc(-c2nc(-c3ccc(CO)nc3)no2)cc1OCC , is EC50 under 80 nM? 1 (yes)

Is EC50 strictly under 80 nM for the entry COc1cc(-c2noc(-c3cc(CC(C)C)no3)n2)ccc1C ? 0 (no)

Criterion: EC50 strictly below 80 nM. Is it met by CCOc1ccc(-c2nc(-c3ccc4[nH]cc(CNCCN(CC)CC)c4c3)no2)cc1OCC ? 0 (no)

Quick check: EC50 of COc1cc(-c2noc(-c3ccc(C#N)c(C)c3)n2)ccc1C under 80 nM? 0 (no)

Dear reviewer, please state whether CCOc1ccc(-c2nc(-c3cccc(Br)c3C)no2)cc1OCC has EC50 strictly beneath 80 nM. 0 (no)

Problem: For the molecule CCOc1ccc(-c2nc(-c3ccc(CN(C)C)cc3)no2)cc1OCC , is EC50 under 80 nM? 0 (no)

Consider COc1cc(-c2noc(-c3cc(Cl)nc(Cl)c3)n2)ccc1C . Does its EC50 lie strictly below 80 nM? 0 (no)

Say whether its EC50 is strictly beneath 80 nM. Entry: COc1cc(OC)c(-c2nc(-c3ccncc3)no2)cc1OC 0 (no)

In the record for CCOc1ccc(-c2nc(-c3cncc(C(=O)OC)c3)no2)cc1OCC , is EC50 less than 80 nM? 1 (yes)

Given COc1cc(-c2noc(-c3cc(C)nc(Cl)c3)n2)ccc1C , is recorded EC50 strictly lower than 80 nM? 0 (no)

Please indicate whether the reported EC50 of CCOc1ccc(-c2nc(-c3ccc(C)c(C)c3)no2)cc1OCC is strictly below 80 nM. 1 (yes)

Problem: For the molecule CCOc1ccc(-c2nc(-c3cccc4c3CCC4O)no2)cc1C#N (stereo not shown) , is EC50 under 80 nM? 1 (yes)

Please indicate whether the reported EC50 of CCOc1ccc(-c2nc(-c3ccc4[nH]cc(CNCCN(C)C)c4c3)no2)cc1OCC is strictly below 80 nM. 0 (no)

Please check: EC50 for CCOc1ccc(-c2nc(-c3ccncc3)no2)cc1OCC , strictly under 80 nM or not? 1 (yes)

# TODO verify EC50 < 80 nM strictly for this molecule: FC(F)(F)c1cc(Br)cc(-c2nc(-c3ccncc3)no2)c1 1 (yes)

For this molecule, is EC50 lower than 80 nM? FC(F)(F)c1cc(-c2nc(-c3ccc(CN4CCCC4)cc3)no2)ccc1-c1ccccc1 1 (yes)

For CCOc1ccc(-c2nc(-c3cccc4c3CCN4)no2)cc1OCC , is the recorded EC50 below the cut-off of 80 nM? 1 (yes)

Is 80 nM strictly greater than the molecule's reported EC50? molecule: CCOc1ccc(-c2nnc(-c3ccncc3)o2)cc1OCC 0 (no)

----------
Please provide measured EC50 for the entries that follow.
measurement.target: UniProtKB Q99500
experiment.description: S1P3 agonist assay (Ec50 S1P3Ag)
Type: cell-based
setup.conditions: read-out: Ec 50 (S1P3Ag)
Response body: numeric value in nM, unit text excluded.

Observed EC50 on UniProtKB Q99500 for COc1ccc(-c2nc(-c3ccncc3)no2)cc1OC1CCCC1 , please. 322

Lab note: need EC50 with UniProtKB Q99500 for entry CCOc1ccc(-c2nc(-c3cccc4c3CCN4C)no2)cc1OCC , please look it up. 2400

Observed EC50 on UniProtKB Q99500 for CCOc1ccc(-c2nc(-c3cccc(CO)c3)no2)cc1OCC , please. 1500

# get_value(readout= EC50, system= UniProtKB Q99500) for CCOc1ccc(-c2nc(-c3ccc(CO)cc3)no2)cc1OCC 606

Recall the recorded EC50 for FC(F)(F)c1cc(Br)cc(-c2nc(-c3ccncc3)no2)c1 with UniProtKB Q99500 and state it. 8000

Request: EC50, test system UniProtKB Q99500, entry CCOc1cc(-c2nc(-c3ccncc3)no2)ccc1OC 2700

Find EC50 (UniProtKB Q99500) for the entry CCOc1ccc(-c2nc(-c3ccncc3)no2)cc1OCC 661

Request body: readout EC50, system UniProtKB Q99500, query CCOc1ccc(-c2nc(-c3ccnc4[nH]ccc34)no2)cc1OCC . Return the value. 2200

Give recorded EC50 with UniProtKB Q99500 for the following compound: CCOc1ccc(-c2nc(-c3ccc(C)c(C)c3)no2)cc1OCC 2000

// fetch UniProtKB Q99500 EC50 for CC(C)(C)c1cc(-c2nc(-c3ccncc3)no2)cc(C(C)(C)C)c1 327

Which measured EC50 belongs to Cc1cnccc1-c1noc(-c2ccc(-c3ccccc3)c(C(F)(F)F)c2)n1 , tested on UniProtKB Q99500? 803

# get_value(readout= EC50, system= UniProtKB Q99500) for CCOc1ccc(-c2nc(-c3ccnc(CO)c3)no2)cc1OCC 938

Give EC50 (UniProtKB Q99500) of the following compound: CCOc1ccc(-c2nc(-c3ccc4c(c3)CCN4)no2)cc1OCC 1800

Form: Entry = CCOc1ccc(-c2nc(-c3cccc4[nH]ccc34)no2)cc1OCC | System = UniProtKB Q99500 | EC50 = ____ 823

----------
measurement.target: S1P3 (Homo sapiens (Human))
Sequence (Q99500 whole entry, species assumed): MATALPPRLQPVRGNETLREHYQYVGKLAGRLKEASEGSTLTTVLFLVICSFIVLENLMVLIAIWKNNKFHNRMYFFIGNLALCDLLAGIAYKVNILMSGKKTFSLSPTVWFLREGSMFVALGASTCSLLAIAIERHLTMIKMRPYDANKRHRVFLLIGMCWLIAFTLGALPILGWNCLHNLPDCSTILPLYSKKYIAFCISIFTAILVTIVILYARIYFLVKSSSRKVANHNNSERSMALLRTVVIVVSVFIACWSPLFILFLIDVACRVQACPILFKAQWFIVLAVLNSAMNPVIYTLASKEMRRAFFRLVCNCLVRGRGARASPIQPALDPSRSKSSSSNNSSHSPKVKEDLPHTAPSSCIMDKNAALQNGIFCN
experiment.description: S1P3 agonist assay (Ec50 S1P3Ag)
Format: cell-based
setup.conditions: read-out: Ec 50 (S1P3Ag)
measurement.name: EC50 (nM)
Give the quantity in nM, number only.

Looking for the measured EC50 of FC(F)(F)c1ccc(-c2noc(-c3ccnc(Cl)c3)n2)cc1 , can you help? 782

Tell me the measured EC50 of CCOc1ccc(-c2nc(-c3ccc(CO)cc3C)no2)cc1OCC , please. 716

I'd like to know its EC50. The molecule in question is CCOc1ccc(-c2nc(-c3cccc(CO)c3C)no2)cc1OCC 774
